# Target Entity: Polyunsaturated fatty acid 5-lipoxygenase (Homo sapiens) (UniProt P09917)
# Experiment Description: Inhibition of human recombinant 5-LO expressed in Escherichia coli BL21 using arachidonic acid as substrate assessed as residual activity at 10 uM after 10 mins
Endpoint: Activity (%)

In the examples that follow, each entry is paired with its recorded Activity.
Compound	Activity / %
COC1=CC(=O)C(O)=C(Cc2ccc3ccccc3c2)C1=O	92.3
CCCCCCc1ccc(O)cc1O [HEXYLRESORCINOL]	25.6
O=C1C=C(c2cccc([N+](=O)[O-])c2)C(=O)C=C1O	8
O=C1C=C(Cc2ccc3ccccc3c2)C(=O)C=C1O	8.7

a: O=C(Cc1ccc2ccccc2c1)c1ccc(O)cc1O
b: CCCCCCC1=CC(=O)C(O)=CC1=O
c: COC1=CC(=O)C(O)=C(Cc2ccccc2)C1=O
Arrange the 3 entries by Activity so the values rise. A complete answer lists every label in the requested sequence.
b, a, c

----------
Known IC50 of a selection of compounds
# Target Entity: Polyunsaturated fatty acid 5-lipoxygenase (Homo sapiens, UniProt P09917)
# Experiment Description: Inhibition of 5-LO in human PMNL using arachidonic acid as substrate preincubated for 15 mins

Compound	Endpoint	Result
O=C1C=C(Cc2ccccc2)C(=O)C=C1O	IC50	> 10 µM

# lookup: Oc1ccc(Cc2ccccc2)c(O)c1 on Polyunsaturated fatty acid 5-lipoxygenase (Homo sapiens, UniProt P09917), IC50 = > 10 µM

The observed IC50 for O=C(Cc1ccc2ccccc2c1)c1ccc(O)cc1O when tested with Polyunsaturated fatty acid 5-lipoxygenase (Homo sapiens, UniProt P09917) stands at 6.8 µM

Tested system Polyunsaturated fatty acid 5-lipoxygenase (Homo sapiens, UniProt P09917); IC50 recorded for O=C1C=C(c2cccc3c2oc2ccccc23)C(=O)C=C1O was > 10 µM

Response field IC50 (Polyunsaturated fatty acid 5-lipoxygenase (Homo sapiens, UniProt P09917)) for item O=C1C=C(c2cccc([N+](=O)[O-])c2)C(=O)C=C1O : > 10 µM

Considering Oc1ccc(-c2cccc3c2oc2ccccc23)c(O)c1 , its IC50 with Polyunsaturated fatty acid 5-lipoxygenase (Homo sapiens, UniProt P09917) was recorded as > 10 µM

Summary line: O=C1C=C(O)C(=O)C(CC2CCC3CCCCC3C2)=C1O (configuration not stated) , Polyunsaturated fatty acid 5-lipoxygenase (Homo sapiens, UniProt P09917), reported IC50 = 0.58 µM

----------
# Target Entity: Polyunsaturated fatty acid 5-lipoxygenase (Homo sapiens)
# Experiment Description: Inhibition of human recombinant 5-LO expressed in Escherichia coli BL21 using arachidonic acid as substrate after 10 mins
Endpoint: IC50 (µM)

Examples from the recorded data:
Molecule	Target Entity	Unit Label	IC50
CCCCCCc1ccc(O)cc1O [HEXYLRESORCINOL]	Polyunsaturated fatty acid 5-lipoxygenase (Homo sapiens)	µM	4.6
O=C1C=C(O)C(=O)C(CC2CCC3CCCCC3C2)=C1O (configuration not stated)	Polyunsaturated fatty acid 5-lipoxygenase (Homo sapiens)	µM	11
O=C1C=C(c2cccc3c2oc2ccccc23)C(=O)C=C1O	Polyunsaturated fatty acid 5-lipoxygenase (Homo sapiens)	µM	0.8
Oc1ccc(-c2ccccc2)c(O)c1	Polyunsaturated fatty acid 5-lipoxygenase (Homo sapiens)	µM	2.8

1: Oc1ccc(-c2cccc3c2Sc2ccccc2S3)c(O)c1
2: Oc1ccc(Cc2ccccc2)c(O)c1
In terms of reported IC50, does 1 or 2 have the smaller number? Select an item and report its label.
1
(1: 3.2 µM, 2: 9.4 µM)

----------
# Target Entity: Polyunsaturated fatty acid 5-lipoxygenase (Homo sapiens)
# Sequence (whole entry): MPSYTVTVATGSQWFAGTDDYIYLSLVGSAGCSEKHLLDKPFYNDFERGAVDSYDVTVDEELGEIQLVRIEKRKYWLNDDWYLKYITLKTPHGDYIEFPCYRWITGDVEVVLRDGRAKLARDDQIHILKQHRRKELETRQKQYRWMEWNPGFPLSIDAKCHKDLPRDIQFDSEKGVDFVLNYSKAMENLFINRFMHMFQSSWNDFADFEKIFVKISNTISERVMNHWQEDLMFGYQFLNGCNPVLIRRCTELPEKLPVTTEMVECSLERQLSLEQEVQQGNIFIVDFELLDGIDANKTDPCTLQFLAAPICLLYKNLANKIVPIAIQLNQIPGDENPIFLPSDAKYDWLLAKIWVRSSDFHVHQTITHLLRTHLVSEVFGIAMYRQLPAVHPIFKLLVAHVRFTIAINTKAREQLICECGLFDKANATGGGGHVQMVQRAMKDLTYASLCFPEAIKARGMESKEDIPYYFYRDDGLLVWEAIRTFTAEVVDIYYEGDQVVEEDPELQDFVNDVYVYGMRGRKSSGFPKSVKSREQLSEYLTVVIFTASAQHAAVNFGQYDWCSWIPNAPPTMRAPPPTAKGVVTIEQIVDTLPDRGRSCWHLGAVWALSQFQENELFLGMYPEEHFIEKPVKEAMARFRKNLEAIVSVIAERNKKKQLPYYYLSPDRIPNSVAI
# Experiment Description: Inhibition of 5-LO in human PMNL using arachidonic acid as substrate assessed as residual activity at 10 uM preincubated for 15 mins
Endpoint: Activity (%)

Consider the following illustrative entries.
Molecule	Activity / %
O=C1C=C(O)C(=O)C(CC2CCCCC2)=C1O	90.4
Oc1ccc(-c2cccc3c2oc2ccccc23)c(O)c1	84.1
O=C1C=C(Cc2ccccc2)C(=O)C=C1O	93.3
O=C(Cc1ccc2ccccc2c1)c1ccc(O)cc1O	42.4
O=C1C=C(Cc2ccc3cc(C(=O)O)ccc3c2)C(=O)C=C1O	74

a: O=[N+]([O-])c1cccc(-c2ccc(O)cc2O)c1
b: Oc1ccc(-c2csc3ccccc23)c(O)c1
Pick one, a or b : lowest reported Activity. Identify your selection by its label.
a
(a: 64.1%, b: 92.8%)

----------
# Target Entity: Polyunsaturated fatty acid 5-lipoxygenase (Homo sapiens) (UniProt P09917)
# Experiment Description: Inhibition of human recombinant 5-LO expressed in Escherichia coli BL21 using arachidonic acid as substrate assessed as residual activity at 10 uM after 10 mins
Endpoint: Activity (%)

# example entries with known answers
Compound	Activity / %
COC1=CC(=O)C(Oc2ccc3ccccc3c2)=CC1=O	7.1
Oc1ccc(-c2cccc3c2Sc2ccccc2S3)c(O)c1	15.4
O=C1C=C(O)C(=O)C(CC2CCCCC2)=C1O	95.2

a: O=[N+]([O-])c1cccc(-c2ccc(O)cc2O)c1
b: Oc1ccc(Cc2ccccc2)c(O)c1
c: Oc1ccc(-c2ccccc2)c(O)c1
d: Oc1ccc(-c2cccc3c2oc2ccccc23)c(O)c1
Arrange these 4 compounds in increasing order of Activity. Output spec: labels arranged per the requested ranking.
c, d, b, a
(c: 9.4%, d: 30.7%, b: 47.6%, a: 84.3%)

P: O=C1C=C(Cc2ccc3cc(C(=O)O)ccc3c2)C(=O)C=C1O
Q: Oc1ccc(-c2csc3ccccc23)c(O)c1
R: O=C1C=C(c2cccc3c2oc2ccccc23)C(=O)C=C1O
Number of compounds to sort: 3. Sort criterion: Activity, ascending. Thanks in advance for listing the labels in the requested order.
R, P, Q
(R: 30.8%, P: 45.2%, Q: 100%)

A: Oc1ccc(Cc2ccc3ccccc3c2)c(O)c1
B: O=C1C=C(Cc2ccccc2)C(=O)C=C1O
Returns the identifier with the smallest measured Activity among A and B . Your answer should be the label of the entry you select.
A
(A: 37.2%, B: 74.3%)

----------
# Target Entity: Polyunsaturated fatty acid lipoxygenase ALOX12 (Homo sapiens) (UniProt P18054)
# Sequence (whole entry): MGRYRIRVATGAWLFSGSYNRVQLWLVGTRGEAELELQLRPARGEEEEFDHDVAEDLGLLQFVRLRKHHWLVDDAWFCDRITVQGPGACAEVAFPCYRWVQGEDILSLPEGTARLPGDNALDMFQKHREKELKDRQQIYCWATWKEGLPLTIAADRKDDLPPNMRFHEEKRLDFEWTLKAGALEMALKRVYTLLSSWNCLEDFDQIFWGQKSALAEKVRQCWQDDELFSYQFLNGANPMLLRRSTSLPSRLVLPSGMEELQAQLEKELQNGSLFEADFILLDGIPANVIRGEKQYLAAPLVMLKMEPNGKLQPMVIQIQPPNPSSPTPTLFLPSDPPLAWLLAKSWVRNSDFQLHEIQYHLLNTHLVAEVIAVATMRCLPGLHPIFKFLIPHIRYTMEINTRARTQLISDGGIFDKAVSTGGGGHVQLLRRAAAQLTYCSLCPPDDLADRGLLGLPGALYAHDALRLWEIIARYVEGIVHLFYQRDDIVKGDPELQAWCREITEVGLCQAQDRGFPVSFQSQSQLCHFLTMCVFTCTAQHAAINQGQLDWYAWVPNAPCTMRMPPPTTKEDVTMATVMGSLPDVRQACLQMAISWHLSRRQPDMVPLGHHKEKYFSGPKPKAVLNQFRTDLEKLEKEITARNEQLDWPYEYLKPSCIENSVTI
# Experiment Description: Inhibition of 12-LO in human PMNL using arachidonic acid as substrate assessed as residual activity at 10 uM preincubated for 15 mins
Endpoint: Activity (%)

P: COC1=CC(=O)C(Oc2ccc3ccccc3c2)=CC1=O
Q: O=C1C=C(c2cccc3c2oc2ccccc23)C(=O)C=C1O
Hi team, can someone confirm which has the larger Activity: P or Q ? Thanks. Which one? Tell me its label.
P
